Measured values drawn from patent US9938257B2 for this set.

- assay-summary: Pharmacokinetics after intravenous and oral administration in rats
- Type: in vivo
- measurement-parameters: oral bioavailability, iv dose 1 mg/kg
- Procedure: The compounds disclosed herein are assessed in pharmacokinetic studies in mice, rats, dogs or monkeys. The compounds are administered as a water solution, 2% HPMC+1% TWEEN®80 in water solution, 5% DMSO+5% solutol in saline, 4% MC suspension or capsule. For the intravenous administration, the animals are generally given at 0.5, 1 or 2 mg/kg dose. […] The plasma solutions are collected, and stored at −20° C. or −70° C. until analyzed by LC/MS/MS as described above.
result-type: F
Write the numeric value and follow it with the unit.

Reported F of Cn1cc(Nc2ncc(Cl)c(NC3CCC4(CC3)CCN(C(=O)C3CC3)CC4)n2)cn1 : 84.6%

The reported value for CCNS(=O)(=O)N1CC2CC(Nc3nc(Nc4cnn(C)c4)ncc3Cl)CC2C1 (centres unmarked) in terms of F is 31.9%

Lab note: CC(O)Cn1cc(Nc2ncc(Cl)c(NC3CC4CN(S(=O)(=O)NC5CC5)CC4C3)n2)cn1 (centres unmarked) gave F of 22.4%

F for CC(O)Cn1cc(Nc2ncc(Cl)c(NC3CC4CN(S(=O)(=O)CC5CC5)CC4C3)n2)cn1 (centres unmarked) is 24.9%

Entry Cn1cc(Nc2ncc(Cl)c(NC3CCC4(CC3)CCN(S(=O)(=O)C3CC3)CC4)n2)cn1 — recorded F = 64.4%

Lab book: F of CC(O)Cn1cc(Nc2ncc(Cl)c(NC3CC4CN(S(C)(=O)=O)CC4C3)n2)cn1 (centres unmarked) noted as 35.3%

Lab note: Cn1cc(Nc2ncc(Cl)c(NC3CC4CN(C(=O)CC5CC5)CC4C3)n2)cn1 (centres unmarked) gave F of 30.5%

Just so you know, measured F for Cn1cc(Nc2ncc(Cl)c(NC3CC4CN(C(=O)N5CCOCC5)CC4C3)n2)cn1 (centres unmarked) came out at 102.8%
